- Target of assay: T1, human IL-11 (human, UniProt P20809 22-199)
- T1 sequence: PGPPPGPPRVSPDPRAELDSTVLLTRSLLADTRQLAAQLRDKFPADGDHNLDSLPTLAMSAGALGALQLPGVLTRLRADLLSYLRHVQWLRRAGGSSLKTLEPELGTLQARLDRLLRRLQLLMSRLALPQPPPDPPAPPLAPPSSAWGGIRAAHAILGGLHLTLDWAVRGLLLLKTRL
- Assay remarks: cell-based or functional assay
Parameter: IC50, RGA 2 (nM)
Answer with a number only, understood to be in nM.

Worked examples, 8 binders total:
>>> recorded_value("TPP-31297 (antibody, IgG4, V domains shown) VH: EVQLLESGGGLVQPGGSLRLSCAASGFTFSHYDMNWLRQAPGKGLEWVGVISYDGSNKFYADFVKGRFTISRDNSKNTLYLQMNSLRAEDTAVYYCARTPGSHFDYWGQGTLVTVSS VL: QSVLTQPPSASGTPGQRVTISCSGSSSNIGNNAVNWYQQLPGTAPKLLIYYDDLLPSGVPDRFSGSKSGTSASLAISGLRSEDEADYYCSAWDDSLQGVVFGGGTKLTVL")
22
>>> recorded_value("TPP-31304 (antibody, IgG4, V domains shown) VH: EVQLLESGGGLVQPGGSLRLSCAASGFTFSHYDMNWLRQAPGKGLEWVGVISYDASNKFYADFVKGRFTISRDNSKNTLYLQMNSLRAEDTAVYYCARTPGSHFDYWGQGTLVTVSS VL: QSVLTQPPSASGTPGQRVTISCSGSSSNIGNNAVNWYQQLPGTAPKLLIYYDDLLPSGVPDRFSGSKSGTSASLAISGLRSEDEADYYCSAWDDSLNGVVFGGGTKLTVL")
35
>>> recorded_value("TPP-31277 (antibody, IgG4, V domains shown, hIgG4 SPLE, lambda) VH: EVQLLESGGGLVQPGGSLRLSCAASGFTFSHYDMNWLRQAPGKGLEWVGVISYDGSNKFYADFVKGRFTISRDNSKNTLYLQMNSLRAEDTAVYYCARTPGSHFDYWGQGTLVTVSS VL: QSVLTQPPSASGTPGQRVTISCSGSSSNIGSNAVNWYQQLPGTAPKLLIYYDDLLPSGVPDRFSGSKSGTSASLAISGLRSEDEADYYCSAWDDSLNGVVFGGGTKLTVL")
47
>>> recorded_value("TPP-31306 (antibody, IgG4, V domains shown) VH: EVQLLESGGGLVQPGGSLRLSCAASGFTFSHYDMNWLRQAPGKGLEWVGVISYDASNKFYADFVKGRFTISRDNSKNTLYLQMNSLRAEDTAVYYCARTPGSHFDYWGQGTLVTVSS VL: QSVLTQPPSASGTPGQRVTISCSGSSSNIGNNAVNWYQQLPGTAPKLLIYYDDLLPSGVPDRFSGSKSGTSASLAISGLRSEDEADYYCSAWDDSLSGVVFGGGTKLTVL")
23
>>> recorded_value("TPP-31301 (antibody, IgG4, V domains shown) VH: EVQLLESGGGLVQPGGSLRLSCAASGFTFSHYDMNWLRQAPGKGLEWVGVISYEGSNKFYADFVKGRFTISRDNSKNTLYLQMNSLRAEDTAVYYCARTPGSHFDYWGQGTLVTVSS VL: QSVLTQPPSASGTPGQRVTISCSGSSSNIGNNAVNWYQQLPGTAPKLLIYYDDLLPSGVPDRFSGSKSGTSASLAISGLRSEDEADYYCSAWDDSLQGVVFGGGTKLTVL")
9.71
>>> recorded_value("TPP-31298 (antibody, IgG4, V domains shown) VH: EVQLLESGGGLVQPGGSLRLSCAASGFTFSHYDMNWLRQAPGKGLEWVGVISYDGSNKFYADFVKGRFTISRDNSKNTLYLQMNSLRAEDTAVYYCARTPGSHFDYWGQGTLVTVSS VL: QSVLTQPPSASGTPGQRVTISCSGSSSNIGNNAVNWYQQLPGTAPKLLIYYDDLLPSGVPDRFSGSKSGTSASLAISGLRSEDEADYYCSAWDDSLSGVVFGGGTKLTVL")
33
>>> recorded_value("TPP-31288 (antibody, IgG4, V domains shown) VH: EVQLLESGGGVVQPGGSLRLSCAASGFTFSHYDMNWLRQAPGKGLEWVGVISYDGSNKFYADFVKGRFTISRDNSKNTLYLQMNSLRAEDTAVYYCARTPGSHFDYWGQGTLVTVSS VL: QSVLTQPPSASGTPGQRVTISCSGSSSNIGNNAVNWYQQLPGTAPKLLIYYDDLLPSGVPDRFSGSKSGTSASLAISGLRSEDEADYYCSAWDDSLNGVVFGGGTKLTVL")
141
>>> recorded_value("TPP-31293 (antibody, IgG4, V domains shown, hIgG4 SPLE, lambda) VH: EVQLLESGGGLVQPGGSLRLSCAASGFTFSHYDMNWVRQAPGKGLEWVGVISYDGSNKFYADFVKGRFTISRDNSKNTLYLQMNSLRAEDTAVYYCARTPGSHFDYWGQGTLVTVSS VL: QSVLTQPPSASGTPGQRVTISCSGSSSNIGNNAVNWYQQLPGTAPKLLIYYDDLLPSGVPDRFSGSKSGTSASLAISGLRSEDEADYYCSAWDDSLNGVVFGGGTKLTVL")
13

Moving on to the next binder.
Asked: Could you share which IC50, RGA 2 value was measured for TPP-18087 (antibody, mouse IgG1, V domains shown) VH: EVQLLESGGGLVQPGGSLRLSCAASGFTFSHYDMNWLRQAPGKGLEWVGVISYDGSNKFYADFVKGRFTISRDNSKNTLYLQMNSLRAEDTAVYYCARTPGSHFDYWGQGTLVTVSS VL: QSVLTQPPSASGTPGQRVTISCSGSSSNIGNNAVNWYQQLPGTAPKLLIYYDDLLPSGVPDRFSGSKSGTSASLAISGLRSEDEADYYCSAWDDSLNGVVFGGGTKLTVLG ?
Given back: 12
